# SUBJECT_OF_TEST: SARS-COV-2 3CLpro/Mpro protease (Severe acute respiratory syndrome coronavirus 2 (2019-nCoV) (SARS-CoV-2))
# ASSAY_NAME: Inhibitory effect on SARS-COV-2 3CLpro/Mpro protease by fluorescence resonance energy transfer
# Format: biochemical
# CONDITION_PARAMETERS: activity intervals A-D, read-out: IC50 (nM), Inhibition on SARS-CoV-2 3CLpro/Mpro protease
READOUT_LABEL: IC50

# COMPOUND, MEASURED_RESULT
data = [
    ("CNc1cncc(C(=O)N2CC(Nc3c(C(=O)N4CCN(CC5CC5)CC4)cc(Br)cc3[N+](=O)[O-])C(F)(F)C2)c1 (centres unmarked)", "10 to 50 nM"),
    ("O=C1C[C@@H](C(=O)N2CCC[C@@H](Nc3c(C(=O)N4CCCCC4)cc(Br)cc3[N+](=O)[O-])C2)c2ccccc2N1", "10 to 50 nM"),
    ("CNc1cncc(C(=O)N2C[C@H](Nc3c(C(=O)N4C[C@H](C)C[C@H](C)C4)cc(Br)cc3[N+](=O)[O-])C3(CC3)C2)c1", "10 to 50 nM"),
    ("CNc1cncc(C(=O)N2C[C@H](Nc3c(C(=O)N4CCN(CCOC)CC4)cc(Br)cc3[N+](=O)[O-])C(C)(C)C2)c1", "10 to 50 nM"),
    ("O=C(c1cncc(Br)c1)N1CC[C@@H](Nc2c(C(=O)N3CCC(F)(F)CC3)cc(Br)cc2C(F)(F)F)C1", "50 to 100 nM"),
    ("CNc1cncc(C(=O)N2CCC[C@@H](Nc3c(C(=O)N4CCC(N5C[C@@H](C)O[C@@H](C)C5)CC4)cc(Br)cc3[N+](=O)[O-])C2)c1", "10 to 50 nM"),
    ("CNc1cncc(C(=O)N2CCC[C@@H](Nc3c(C(=O)N4CCO[C@H](CF)C4)cc(Br)cc3[N+](=O)[O-])C2)c1", "10 to 50 nM"),
    ("CNc1cncc(C(=O)N2CC(Nc3c(C(=O)N4CCC5(CCC5)CC4)cc(Br)cc3[N+](=O)[O-])C(C)(C)C2)c1 (centres unmarked)", "10 to 50 nM"),
    ("CNc1cncc(C(=O)N2CCC[C@@H](Nc3c(C(=O)N4CCOC5(CC5)C4)cc(Br)cc3[N+](=O)[O-])C2)c1", "10 to 50 nM"),
    ("Cc1cc(C(=O)N2CC(Nc3c(C(=O)N4CCN(CC(F)(F)F)CC4)cc(Br)cc3[N+](=O)[O-])C(F)(F)C2)cc(=O)[nH]1 (centres unmarked)", "50 to 100 nM"),
    ("CNc1cncc(C(=O)N2C[C@H](Nc3c(C(=O)N4C[C@@H](C)O[C@@H](C)C4)cc(Br)cc3[N+](=O)[O-])C[C@H]2C(=O)NC2C[C@@H](C)O[C@@H](C)C2)c1 (some centres unmarked)", "100 to 200 nM"),
    ("CNc1cncc(C(=O)N2CC(Nc3c(C(=O)N4CCCCC4)cc(Br)cc3[N+](=O)[O-])C(C)(C)C2)c1 (centres unmarked)", "10 to 50 nM"),
    ("C[C@@H]1CN(C(=O)c2cc(Br)cc([N+](=O)[O-])c2N[C@@H]2CCCN(C(=O)[C@@H]3CCCOC3)C2)C[C@H](C)O1", "10 to 50 nM"),
    ("CCn1cc(Br)c(NC(=O)[C@@H]2C[C@@H](Nc3c(C(=O)N4C[C@@H](C)O[C@@H](C)C4)cc(Br)cc3[N+](=O)[O-])CN2C(=O)c2cncc(NC)c2)n1", "50 to 100 nM"),
    ("CNc1cncc(C(=O)N2C[C@H](Nc3c(C(=O)N4C[C@@H](C)O[C@@H](C)C4)cc(Br)cc3[N+](=O)[O-])C[C@H]2C(=O)N2CC(F)(F)C2)c1", "50 to 100 nM"),
    ("CNc1ccc2c(C(=O)N3CCC[C@@H](Nc4c(C(=O)N5C[C@@H](C)O[C@@H](C)C5)cc(Br)cc4[N+](=O)[O-])C3)cc(=O)[nH]c2c1", "10 to 50 nM"),
    ("CNc1cncc(C(=O)N2CCC[C@@H](Nc3c(C(=O)N4CCOC[C@@H]4C)cc(Br)cc3[N+](=O)[O-])C2)c1", "10 to 50 nM"),
]

All figures here come from patent US20250042889A1.
